tested on: OVCAR-5 ovarian; experiment: NCI tumour cell line growth inhibition, 48 h
measurement_name: TGI

Before answering, review these 4 worked examples.
[Q] Indicate the recorded TGI value for this molecule: C=CCn1cc(C(=O)NC(=O)NCCCCCOC(=O)CCCCCCCCCCC(=O)OCCCCCNC(=O)NC(=O)c2cn(CC=C)c(=O)n(C)c2=O)c(=O)n(C)c1=O
[A] > 100 µM

[Q] Give me measured TGI, please, for this molecule: COc1ccc(OC)c2c(=S)c3ccccc3[nH]c12
[A] > 100 µM

[Q] Identify the reported TGI for the following entry. N#C/C(=C\c1ccc(Br)cc1)n1nnc2ccccc21
[A] 3.26 µM

[Q] For the molecule CCOC(=O)C(C(=O)OCC)=C1NC2(c3ccccc3Nc3ccc(C)cc32)C(C(=O)OC)S1 (stereo not drawn) , report TGI.
[A] > 100 µM

Others:
[Q] Identify the reported TGI for the following entry. N#CC1C2CCC3(CC2CCN1C(=O)c1ccccc1)OCCO3 (stereo not drawn)
[A] > 100 µM

[Q] Specify measured TGI for C=C1C(=O)O[C@H]2[C@H]1CC/C(Cn1cc(-c3cc(C)c(C)cc3C)nn1)=C\CC[C@@]1(C)O[C@@H]21 .
[A] 4.38 µM

[Q] Give reported TGI value for CCN(CC)C(=O)N1CN(c2ccccc2)C2(CCN(CCCSc3ccc(F)cc3)CC2)C1=O
[A] 36.9 µM

[Q] Input Clc1nc(Cl)c(CBr)c(Cl)n1 , output reported TGI.
[A] 15 µM

[Q] Give TGI for COc1cc2c(c(OC)c1OC)-c1ccc(OC)c(=O)cc1[C@@H](N(C)C=O)CC2
[A] > 100 µM

[Q] Give TGI for Cc1nc(C(N)=S)sc1C(=O)C/C(=N/N)C(=O)Nc1ccc(Cl)cc1
[A] > 100 µM

[Q] Consider the molecule Cc1cc2cn3c4cccnc4[nH]c(=O)c3c2cc1C and give its recorded TGI.
[A] 3.02 µM

---

test system: HOP-18 NSCLC; experiment: NCI tumour cell line growth inhibition, 48 h
measurement_name: TGI

[Q] Return TGI for the following compound: C=C1C(=O)OC2CC(C)C3C=CC(=O)C3CC12 (configuration not stated)
[A] 16.9 µM

Alright, here's another compound for you.
[Q] For the compound C/C(=N\N=C(N)N)C(CN(C)C)C(c1ccccc1)c1c(O)c2ccccc2oc1=O (configuration not stated) , give its reported TGI.
[A] > 100 µM

---

Items are presented alongside their recorded TGI.
tested on: MDA-MB-231 breast; assay: NCI tumour cell line growth inhibition, 48 h
*1 amine or outer side, *2 acyl side, *3 side chain or, on linkers, in order; H or OH if unused. Where a SMILES comes first, the peptide text is derived from it. [ ]: non-standard residue; d: D form. ξ: configuration not given here. X21 = CC[C@@H](C)C(N[*:1])C(=O)[*:2]; ξR = N=C(N)NCCCC(N)C(=O)O; ξI = CCC(C)C(N)C(=O)O; ξL = CC(C)CC(N)C(=O)O; ξK = NCCCCC(N)C(=O)O; ξV = CC(C)C(N)C(=O)O; ξA = CC(N)C(=O)O
Write down the numeric answer in µM and omit the unit.

Some molecules with known TGI results, for comparison:
[Q] Give me measured TGI, please, for this molecule: C=C1C(=O)O[C@H]2[C@H]1CC/C(COC(=O)c1ccccc1)=C\CC[C@@]1(C)O[C@@H]21
[A] 4.36

[Q] For the molecule C=C1C(=O)O[C@H]2[C@H]1CC/C(Cn1cc(-c3cc(C)c(C)cc3C)nn1)=C\CC[C@@]1(C)O[C@@H]21 , report TGI.
[A] 2.62

[Q] Note TGI for the molecule shown: CC(=O)NC(Cc1ccc(OP(=O)(OCc2ccc([N+](=O)[O-])o2)N(C)CCCCCl)cc1)C(=O)NC(C)c1ccc(OCC2CCCCC2)c(C(N)=O)c1 (configuration not stated)
[A] 4.79

More entries:
[Q] For Cc1ccc(Sc2sc(-c3ccccc3)nc2[P+](c2ccccc2)(c2ccccc2)c2ccccc2)cc1 , write its TGI.
[A] 0.943

[Q] Given the molecule CCC(C)C1NC(=O)C(CC(C)C)NC(=O)C(C)NC(=O)C(C(C)C)NC(=O)C(CCCCN)NC(=O)C(CC(C)C)NC(=O)C(C(C)C)NC(=O)[C@H](C)NC(=O)C(C(C)CC)NC(=O)C(CCCN=C(N)N)NC(=O)C(CCCCN)NC(=O)C(CCCN=C(N)N)NC(=O)C(CCCCN)NC(=O)C([C@H](C)CC)NC(=O)C(CCCCN)NC1=O (some centres not stated) (cyclo(A[ξV][ξL][ξK][ξV][ξA][ξL][ξI][ξK][X21][ξK][ξR][ξK][ξR][ξI])) , write its reported TGI.
[A] 3.73

[Q] Please list TGI recorded for the molecule Oc1ccc(C#CCOc2ccccc2)cc1CNCCN(Cc1ccccn1)Cc1ccccn1
[A] 2.96

[Q] Please report TGI for the following molecule: COc1ccc(/C=N/NC(=O)c2cnc3[nH]c(=O)n(C)c(=O)c3c2)cc1
[A] 86.8

[Q] Note TGI for the molecule shown: O=C(COc1cccc(/C=C2\CSc3ccccc3C2=O)c1)c1ccc(Cl)cc1
[A] 14.8

---

system: SNB-78 CNS; experiment: NCI tumour cell line growth inhibition, 48 h
measurement_name: TGI

Examples with answers:
[Q] // fetch TGI given entry Cn1cnc([N+](=O)[O-])c1Sc1nnnn1-c1ccccc1
[A] 34.2 µM

[Q] State its TGI: COc1ccc(-c2c(N)[n+]([O-])c3ccccc3[n+]2[O-])cc1OC
[A] > 100 µM

Okay, next one:
[Q] In one line, give reported TGI of the entry CC1(C)CC(Nc2ccc(Nc3ccccc3)cc2)CC(C)(C)N1 .
[A] > 100 µM

---

system: OVCAR-4 ovarian; assay: NCI tumour cell line growth inhibition, 48 h
*1 amine or outer side, *2 acyl side, *3 side chain or, on linkers, in order; H or OH if unused. Where a SMILES comes first, the peptide text is derived from it. [ ]: non-standard residue; d: D form. ξ: configuration not given here. X21 = CC[C@@H](C)C(N[*:1])C(=O)[*:2]; ξR = N=C(N)NCCCC(N)C(=O)O; ξI = CCC(C)C(N)C(=O)O; ξL = CC(C)CC(N)C(=O)O; ξK = NCCCCC(N)C(=O)O; ξV = CC(C)C(N)C(=O)O; ξA = CC(N)C(=O)O
measurement_name: GI50

[Q] Name the recorded GI50 of the item COC1=C(Br)C(=O)C2=C(C1=O)C1C3=C(C(=O)C=CC3=O)C2c2ccccc21 (configuration not stated) in your answer.
[A] 13.7 µM

[Q] // fetch GI50 given entry CCC(C)C1NC(=O)C(CC(C)C)NC(=O)C(C)NC(=O)C(C(C)C)NC(=O)C(CCCCN)NC(=O)C(CC(C)C)NC(=O)C(C(C)C)NC(=O)[C@H](C)NC(=O)C(C(C)CC)NC(=O)C(CCCN=C(N)N)NC(=O)C(CCCCN)NC(=O)C(CCCN=C(N)N)NC(=O)C(CCCCN)NC(=O)C([C@H](C)CC)NC(=O)C(CCCCN)NC1=O (some centres not stated) (cyclo(A[ξV][ξL][ξK][ξV][ξA][ξL][ξI][ξK][X21][ξK][ξR][ξK][ξR][ξI]))
[A] 0.72 µM

[Q] Answer with the recorded GI50 for the molecule listed here: Fc1ccc2[nH]cc(SSc3c[nH]c4ccc(F)cc34)c2c1
[A] 3.87 µM

[Q] Answer with the recorded GI50 for the molecule listed here: CC(C)Nc1ncc2cc(Oc3ccc(F)cc3F)c(=O)n(C)c2n1
[A] > 25 µM

[Q] Input Cc1cc2cn3c4cccnc4[nH]c(=O)c3c2cc1C , output reported GI50.
[A] 1.6 µM

New cases:
[Q] Check the records and state GI50 for COc1cc2c(cc1OCCCCOc1ccc(-c3nc4ccccc4s3)cc1)N=C[C@@H]1CCCN1C2=O
[A] 1.24 µM

[Q] Give me measured GI50, please, for this molecule: COc1ccc2c(c1)C1(C(=O)N2)C(C#N)=C(c2ccccc2)Nc2c1c(-c1ccccc1)nn2-c1ccccc1 (configuration not stated)
[A] 1.77 µM

---

Measured log10(TGI), listed per entry.
tested on: HOP-92 NSCLC; test: NCI tumour cell line growth inhibition, 48 h
Log scale reminder: TGI in µM, then log10 taken.

Example entries begin here.
[Q] Output measured log10(TGI) for this item: C1COCCOCCOCCOCCO1.CC(=O)[CH-]C(C)=O.CC(=O)[CH-]C(C)=O.CC(=O)[CH-]C(C)=O.[V]
[A] 1.65

[Q] Answer with the recorded log10(TGI) for the molecule listed here: Clc1ccc(Nc2ccnc(NCCCNc3ccnc4cc(Cl)ccc34)n2)cc1
[A] 0.45

[Q] Please give measured log10(TGI) of the following entry: COc1cc(/C=C(\OC(C)=O)c2ccc3c(c2)OCO3)cc(OC)c1OC
[A] 1.66

[Q] Specify measured log10(TGI) for C=C1C(=O)O[C@@H]2[C@H](O)[C@@H](C)[C@@H]3C=CC(=O)[C@@]3(C)[C@H](OC(=O)C=C(C)C)[C@H]12 .
[A] 0.34

[Q] Identify measured log10(TGI) associated with CN1CCN(c2ccc(C(=O)Nc3cc(-c4cccc(NS(=O)(=O)c5ccccc5)c4)[nH]n3)cc2)CC1
[A] 1.21

[Q] Answer with the recorded log10(TGI) for the molecule listed here: CSc1nc2c(=O)n(-c3ccccc3)c(=S)n(-c3ccccc3)c2s1
[A] 1.91

---
[Q] Answer with the recorded log10(TGI) of Oc1ccc(C#CCOc2ccccc2)cc1CNCCN(Cc1ccccn1)Cc1ccccn1 only.
[A] 0.61

[Q] Look up and report measured log10(TGI) for this entry: CCOC(=O)C(C(=O)OCC)=C1NC2(c3ccccc3Nc3ccc(C)cc32)C(C(=O)OC)S1 (stereo not given)
[A] 1.65

Origin of values: PubChem BioAssay (NCI)
